meta.source: ChEMBL document CHEMBL4680134

Collected MIC values appear next to each entry.
# Study system: Multidrug efflux pump subunit AcrB (Escherichia coli (strain K12)) (UniProt P31224)
# Assay info: Inhibition of AcrB in Escherichia coli BW25113 assessed as potentiation of rifampicin induced antibacterial activity by measuring rifampicin MIC at 8 ug/ml measured after 18 hrs by checkerboard titration method (reference value: 16 ug/ml)
# Experimental context: dose 8.0 µg/ml
API: value field is a number in µg/mL; no unit string.

| Compound string | Assay readout | Numeric readout |
| --- | --- | --- |
| Nc1ccccc1C(=O)NCCc1ccc(O)c(O)c1 | MIC | 16 |
| O=C(NCCc1ccc(O)c(O)c1)c1cc(O)c(O)c(O)c1 | MIC | 16 |
| O=C(NCCc1ccc(O)c(O)c1)c1ccc(C(F)(F)F)cc1 | MIC | 16 |

# next compound below
Asked: What reported MIC corresponds to Cc1ccc(C(=O)NCCc2ccc(O)c(O)c2)cc1 on Multidrug efflux pump subunit AcrB (Escherichia coli (strain K12)) (UniProt P31224)?
Given back: 16

---

Collected MIC values appear next to each entry.
# Study system: Multidrug efflux pump subunit AcrB (Escherichia coli (strain K12)) (UniProt P31224)
# Sequence (whole entry): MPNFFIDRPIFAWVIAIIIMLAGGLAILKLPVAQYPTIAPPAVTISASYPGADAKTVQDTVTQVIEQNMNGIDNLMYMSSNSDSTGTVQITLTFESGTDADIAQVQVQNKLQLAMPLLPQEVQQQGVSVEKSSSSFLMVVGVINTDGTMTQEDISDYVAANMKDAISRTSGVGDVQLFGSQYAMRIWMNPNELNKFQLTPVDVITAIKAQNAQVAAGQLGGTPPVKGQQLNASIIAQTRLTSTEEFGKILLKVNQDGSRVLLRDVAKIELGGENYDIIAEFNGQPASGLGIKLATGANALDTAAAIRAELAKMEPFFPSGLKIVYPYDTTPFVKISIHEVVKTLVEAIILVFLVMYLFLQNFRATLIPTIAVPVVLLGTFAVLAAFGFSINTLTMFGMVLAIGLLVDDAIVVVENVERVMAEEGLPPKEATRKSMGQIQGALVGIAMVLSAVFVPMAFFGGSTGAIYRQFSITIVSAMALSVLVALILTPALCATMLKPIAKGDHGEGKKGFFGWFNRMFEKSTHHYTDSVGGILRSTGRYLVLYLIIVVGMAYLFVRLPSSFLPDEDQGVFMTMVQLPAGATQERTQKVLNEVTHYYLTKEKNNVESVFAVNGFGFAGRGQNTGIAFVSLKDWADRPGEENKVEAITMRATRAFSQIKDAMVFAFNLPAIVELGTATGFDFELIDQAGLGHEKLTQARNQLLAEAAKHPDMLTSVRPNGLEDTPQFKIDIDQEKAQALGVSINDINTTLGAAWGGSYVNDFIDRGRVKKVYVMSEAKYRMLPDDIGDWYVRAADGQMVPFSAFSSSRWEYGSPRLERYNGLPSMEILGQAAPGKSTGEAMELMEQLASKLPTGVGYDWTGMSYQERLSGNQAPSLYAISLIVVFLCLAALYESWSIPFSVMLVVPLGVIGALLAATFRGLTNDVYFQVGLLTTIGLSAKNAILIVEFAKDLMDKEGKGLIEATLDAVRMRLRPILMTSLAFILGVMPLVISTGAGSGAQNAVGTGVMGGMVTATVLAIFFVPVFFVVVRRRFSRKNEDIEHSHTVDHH
# Assay info: Inhibition of AcrB in Escherichia coli BW25113 assessed as potentiation of erythromycin induced antibacterial activity by measuring erythromycin MIC at 128 ug/ml measured after 18 hrs by checkerboard titration method (reference value: 64 ug/ml)
# Experimental context: dose 128.0 µg/ml
API: value field is a number in µg/mL; no unit string.

Known results for compounds:
| Compound | Study system | MIC (µg/mL) |
| --- | --- | --- |
| Oc1ccc(CCCCc2cc(O)c(O)c(O)c2)cc1O | Multidrug efflux pump subunit AcrB (Escherichia coli (strain K12)) (UniProt P31224) | 32 |
| O=C(NCCc1ccc(O)c(O)c1)c1ccc(O)c(O)c1 | Multidrug efflux pump subunit AcrB (Escherichia coli (strain K12)) (UniProt P31224) | 32 |
| Nc1ccccc1C(=O)NCCc1ccc(O)c(O)c1 | Multidrug efflux pump subunit AcrB (Escherichia coli (strain K12)) (UniProt P31224) | 32 |
| Oc1ccc(CCCCCc2ccc(O)c(O)c2)cc1O | Multidrug efflux pump subunit AcrB (Escherichia coli (strain K12)) (UniProt P31224) | 64 |

Asked: What reported MIC corresponds to Oc1ccc(CCCCc2ccccc2O)cc1O on Multidrug efflux pump subunit AcrB (Escherichia coli (strain K12)) (UniProt P31224)?
Given back: 64

Asked: What reported MIC corresponds to Oc1ccc(CCCCc2cc3cccc4ccc5cccc2c5c43)cc1O on Multidrug efflux pump subunit AcrB (Escherichia coli (strain K12)) (UniProt P31224)?
Given back: 32

Asked: What reported MIC corresponds to Oc1ccc(CCCCCCc2ccc(O)c(O)c2)cc1O on Multidrug efflux pump subunit AcrB (Escherichia coli (strain K12)) (UniProt P31224)?
Given back: 64

Asked: What reported MIC corresponds to Oc1ccc(CCCc2ccc(O)c(O)c2)cc1O on Multidrug efflux pump subunit AcrB (Escherichia coli (strain K12)) (UniProt P31224)?
Given back: 32

Asked: What reported MIC corresponds to O=C(NCCc1ccc(O)c(O)c1)c1ccccc1O on Multidrug efflux pump subunit AcrB (Escherichia coli (strain K12)) (UniProt P31224)?
Given back: 64

Asked: What reported MIC corresponds to Oc1ccc(CCCCc2ccc(O)c(O)c2)cc1O on Multidrug efflux pump subunit AcrB (Escherichia coli (strain K12)) (UniProt P31224)?
Given back: 32

Asked: What reported MIC corresponds to Oc1ccc(CCCCCCCc2ccc(O)c(O)c2)cc1O on Multidrug efflux pump subunit AcrB (Escherichia coli (strain K12)) (UniProt P31224)?
Given back: 64

Asked: What reported MIC corresponds to Nc1cc(N)cc(C(=O)NCCc2ccc(O)c(O)c2)c1 on Multidrug efflux pump subunit AcrB (Escherichia coli (strain K12)) (UniProt P31224)?
Given back: 32

Asked: What reported MIC corresponds to O=C(NCCc1ccc(O)c(O)c1)c1cc(O)c(O)c(O)c1 on Multidrug efflux pump subunit AcrB (Escherichia coli (strain K12)) (UniProt P31224)?
Given back: 16

Asked: What reported MIC corresponds to C[C@H](Cc1ccc(O)c(O)c1)[C@@H](C)Cc1ccc(O)c(O)c1 [MASOPROCOL] on Multidrug efflux pump subunit AcrB (Escherichia coli (strain K12)) (UniProt P31224)?
Given back: 64
